Target: mouse TGR5 receptor (Mus musculus, UniProt Q80SS6)
Construct: expressed in transfected cells; host or cells: HEK293-EBNA (293 c18, ATCC CRL10852), Hygromycin B selection
Sequence (Q80SS6 whole entry): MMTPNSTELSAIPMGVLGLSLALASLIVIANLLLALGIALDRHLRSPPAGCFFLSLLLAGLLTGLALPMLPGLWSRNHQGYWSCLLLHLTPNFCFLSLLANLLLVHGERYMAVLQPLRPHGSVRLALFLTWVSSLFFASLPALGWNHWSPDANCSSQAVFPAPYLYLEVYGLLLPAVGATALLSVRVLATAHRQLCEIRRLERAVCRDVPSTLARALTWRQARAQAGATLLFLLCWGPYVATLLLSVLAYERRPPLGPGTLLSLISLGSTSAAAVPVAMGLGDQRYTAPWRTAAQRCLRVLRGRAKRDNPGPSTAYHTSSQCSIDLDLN
Experiment: Mouse TGR5 cAMP production assay (luminescent, DiscoveRx cAMP XS+)
Assay type: cell-based
Settings: HEK293-EBNA cells overexpressing mouse TGR5, luminescent cAMP XS+; coded A-D; read-out: Mouse TGR5 Lum. cAMP Activity (EC50)
pEC50: −log10 of the molar value.
For each of the compounds below, state its pEC50.

Documented pEC50 of `CCc1cnccc1-c1cccc(C(C)(C)NS(=O)(=O)c2ccccc2C(F)(F)F)c1` : > 7.00

Documented pEC50 of `C[C@@H](NS(=O)(=O)c1cccc(C(F)(F)F)c1)c1cccc(-c2ccncc2F)c1` : 4.52 to 6.00

Documented pEC50 of `O=S(=O)(NCc1cccc(-c2cc(C(F)(F)F)ncn2)c1)c1cccc(C(F)(F)F)c1` : < 4.52

Documented pEC50 of `C[C@@H](NS(=O)(=O)c1cccc(C(F)(F)F)c1)c1cccc(-c2ccncc2Cl)c1` : 6.00 to 7.00

Documented pEC50 of `Cc1noc(C)c1-c1cccc(CNS(=O)(=O)c2ccc(F)c(C(F)(F)F)c2)c1` : < 4.52

Documented pEC50 of `CCc1cnccc1-c1cccc(C(C)(C)NS(=O)(=O)c2cccc(C(F)(F)F)c2)c1` : 6.00 to 7.00

Documented pEC50 of `CC(C)(NS(=O)(=O)c1cccc(C(F)(F)F)c1)c1cccc(-c2ccnc(Cl)c2)c1` : 4.52 to 6.00

Documented pEC50 of `COc1cnccc1-c1cccc(C(C)(C)NS(=O)(=O)c2ccccc2Cl)c1` : 6.00 to 7.00

Documented pEC50 of `COCCOc1cnccc1-c1cccc(C(C)(C)NS(=O)(=O)c2cccc(C(F)(F)F)c2)c1` : 4.52 to 6.00

Documented pEC50 of `O=S(=O)(NCc1ccc(Cl)c(-c2ccncc2)c1)c1cccc(C(F)(F)F)c1` : < 4.52

Documented pEC50 of `O=S(=O)(NCc1cc(Cl)cc(-c2ccncc2)c1)c1cccc(C(F)(F)F)c1` : < 4.52

Documented pEC50 of `O=S(=O)(NCc1cccc(-c2ccncc2)c1)c1ccccc1C(F)(F)F` : 4.52 to 6.00

Documented pEC50 of `Cc1cnccc1-c1cccc([C@@H](C)NS(=O)(=O)c2cccc(C(F)(F)F)c2)c1` : 6.00 to 7.00

Documented pEC50 of `Cc1cc(-c2cccc(C(C)(C)NS(=O)(=O)c3cccc(C(F)(F)F)c3)c2)ccn1` : 4.52 to 6.00
